studySystem: T1, cIL2Rg-Fc (lot#P210115SV5) (cynomolgus, UniProt A0A2K5VGJ6 23-262)
T1 construct: Named only by lot number; also called cynomolgus IL2Rg-Fc; not shown: Fc of the fusion protein
T1 sequence: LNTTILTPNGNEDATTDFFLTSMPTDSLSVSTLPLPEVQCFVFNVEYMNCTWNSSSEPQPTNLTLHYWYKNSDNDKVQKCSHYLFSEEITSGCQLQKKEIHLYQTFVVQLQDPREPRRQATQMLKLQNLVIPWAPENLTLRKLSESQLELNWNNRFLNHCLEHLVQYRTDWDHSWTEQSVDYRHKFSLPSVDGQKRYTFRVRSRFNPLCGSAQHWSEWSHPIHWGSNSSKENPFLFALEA
methodNotes: SPR (Biacore T200), Fc-fused ligand captured on chip, dual VHH as analyte, 1:1 Langmuir fit
quantityName: log10(Kd) (log10 of the value in nM)

binder="DR438(DR235-DR234) (bispecific antibody, Anti-hIL10Ra/hIL2Rg dual VHH with ASH6 handle; also called D12) QVQLQESGGGSVQAGGSLRLSCAASRYLYSIDYMAWFRQSPGKEREPVAVIYTASGATFYPDSVKGRFTISQDNAKMTVYLQMNSLKSEDTAMYYCAAVRKTDSYLFDAQSFTYWGQGTQVTVSSGGGSQVQLQESGGGSVQAGGSLRLSCVASGYTFSSYCMGWFRQAPGKEREGVAALGGGSTYYADSVKGRFTISQDNAKNTLYLQMNSLKPEDTAMYYCAAAWVACLEFGGSWYDLARYKHWGQGTQVTVSSASHHHHHH" quantitativeresult=0.34
binder="DR395(DR229-DR239) (bispecific antibody, Anti-hIL10Ra/hIL2Rg dual VHH with ASH6 handle; also called A2) QVQLQESGGGLVQPGGSLRLSCTASGFSFSSYPMTWARQAPGKGLEWVSTIASDGGSTAYAASVEGRFTISRDNAKSTLYLQLNSLKTEDTAMYYCTKGYGDGTPAPGQGTQVTVSSGGGSQVQLQESGGGSVQAGGSLRLSCTVSGYTYSSNCMGWFRQAPGKEREGVATIYTGGGNTYYADSVKGRFTISQDNAKNTVYLQMNNLKPEDTAMYYCAAEPLSRVYGGSCPTPTFDYWGQGTQVTVSSASHHHHHH" quantitativeresult=0.51
binder="DR444(DR236-DR234) (bispecific antibody, Anti-hIL10Ra/hIL2Rg dual VHH with ASH6 handle; also called E8) QVQLQESGGGSVQAGGSLRLSCAASRFTYSSYCMGWFRQAPGKEREGVASIDSDGSTSYTDSVKGRFTISKDNAKNTLYLQMNSLKPEDTAMYYCALDLMSTVVPGFCGFLLSAGMDYWGKGTQVTVSSGGGSQVQLQESGGGSVQAGGSLRLSCVASGYTFSSYCMGWFRQAPGKEREGVAALGGGSTYYADSVKGRFTISQDNAKNTLYLQMNSLKPEDTAMYYCAAAWVACLEFGGSWYDLARYKHWGQGTQVTVSSASHHHHHH" quantitativeresult=0.72
binder="DR442(DR236-DR232) (bispecific antibody, Anti-hIL10Ra/hIL2Rg dual VHH with ASH6 handle; also called F7) QVQLQESGGGSVQAGGSLRLSCAASRFTYSSYCMGWFRQAPGKEREGVASIDSDGSTSYTDSVKGRFTISKDNAKNTLYLQMNSLKPEDTAMYYCALDLMSTVVPGFCGFLLSAGMDYWGKGTQVTVSSGGGSQVQLQESGGGSVQAGGSLRLSCVASGYTSCMGWFRQAPGKEREAVATIYTRGRSIYYADSVKGRFTISQDNAKNTLYLQMNSLKPEDIAMYSCAAGGYSWSAGCEFNYWGQGTQVTVSSASHHHHHH" quantitativeresult=1.62
binder="DR468(DR240-DR234) (bispecific antibody, Anti-hIL10Ra/hIL2Rg dual VHH with ASH6 handle; also called G8) QVQLQESGGGSVQAGGSLRLSCGASGYTYSSYCMGWFRQVPGKEREGVAVIDSDGSTSYADSVKGRFTISKDNGKNTLYLQMNSLKPEDTAMYYCAADLGHYRPPCGVLYLGMDYWGKGTQVTVSSGGGSQVQLQESGGGSVQAGGSLRLSCVASGYTFSSYCMGWFRQAPGKEREGVAALGGGSTYYADSVKGRFTISQDNAKNTLYLQMNSLKPEDTAMYYCAAAWVACLEFGGSWYDLARYKHWGQGTQVTVSSASHHHHHH" quantitativeresult=0.63
binder="DR392(DR229-DR236) (bispecific antibody, Anti-hIL10Ra/hIL2Rg dual VHH with ASH6 handle; also called A7) QVQLQESGGGLVQPGGSLRLSCTASGFSFSSYPMTWARQAPGKGLEWVSTIASDGGSTAYAASVEGRFTISRDNAKSTLYLQLNSLKTEDTAMYYCTKGYGDGTPAPGQGTQVTVSSGGGSQVQLQESGGGSVQAGGSLRLSCAASRFTYSSYCMGWFRQAPGKEREGVASIDSDGSTSYTDSVKGRFTISKDNAKNTLYLQMNSLKPEDTAMYYCALDLMSTVVPGFCGFLLSAGMDYWGKGTQVTVSSASHHHHHH" quantitativeresult=0.38
binder="DR474(DR241-DR234) (bispecific antibody, Anti-hIL10Ra/hIL2Rg dual VHH with ASH6 handle; also called H9) QVQLQESGGGSVQAGGSLRLSCAASGYSNCSYDMTWYRQAPGKEREFVSAIHSDGSTRYADSVKGRFFISQDNAKNTVYLQMNSLKPEDTAMYYCKTDPLHCRAHGGSWYSVRANYWGQGTQVTVSSGGGSQVQLQESGGGSVQAGGSLRLSCVASGYTFSSYCMGWFRQAPGKEREGVAALGGGSTYYADSVKGRFTISQDNAKNTLYLQMNSLKPEDTAMYYCAAAWVACLEFGGSWYDLARYKHWGQGTQVTVSSASHHHHHH" quantitativeresult=0.46
binder="DR471(DR241-DR231) (bispecific antibody, Anti-hIL10Ra/hIL2Rg dual VHH with ASH6 handle; also called G3) QVQLQESGGGSVQAGGSLRLSCAASGYSNCSYDMTWYRQAPGKEREFVSAIHSDGSTRYADSVKGRFFISQDNAKNTVYLQMNSLKPEDTAMYYCKTDPLHCRAHGGSWYSVRANYWGQGTQVTVSSGGGSQVQLQESGGGSVQAGGSLRLSCTASGFTFDDREMNWYRQAPGNECELVSTISSDGSTYYADSVKGRFTISQDNAKNTVYLQMDSVKPEDTAVYYCAADFMIAIQAPGAGCWGQGTQVTVSSASHHHHHH" quantitativeresult=1.13
binder="DR466(DR240-DR232) (bispecific antibody, Anti-hIL10Ra/hIL2Rg dual VHH with ASH6 handle; also called H7) QVQLQESGGGSVQAGGSLRLSCGASGYTYSSYCMGWFRQVPGKEREGVAVIDSDGSTSYADSVKGRFTISKDNGKNTLYLQMNSLKPEDTAMYYCAADLGHYRPPCGVLYLGMDYWGKGTQVTVSSGGGSQVQLQESGGGSVQAGGSLRLSCVASGYTSCMGWFRQAPGKEREAVATIYTRGRSIYYADSVKGRFTISQDNAKNTLYLQMNSLKPEDIAMYSCAAGGYSWSAGCEFNYWGQGTQVTVSSASHHHHHH" quantitativeresult=1.70
